Attribution: patent US12479827B2

Measured IC50 on Human PKK (Homo sapiens, UniProt P03952) follows.
Sequence (P03952 20-390 limits assumed): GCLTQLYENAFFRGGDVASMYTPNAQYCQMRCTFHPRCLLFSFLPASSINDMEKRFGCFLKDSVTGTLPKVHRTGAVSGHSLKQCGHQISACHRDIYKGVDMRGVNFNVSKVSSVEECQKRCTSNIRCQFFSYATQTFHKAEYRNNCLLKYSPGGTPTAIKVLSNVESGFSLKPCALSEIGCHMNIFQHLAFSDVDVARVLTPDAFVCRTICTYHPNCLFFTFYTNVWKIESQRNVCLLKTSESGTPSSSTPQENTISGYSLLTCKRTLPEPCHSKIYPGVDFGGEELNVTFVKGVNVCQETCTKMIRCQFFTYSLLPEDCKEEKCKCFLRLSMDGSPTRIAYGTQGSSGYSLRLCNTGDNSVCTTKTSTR
Sequence (P03952 391-638 limits assumed): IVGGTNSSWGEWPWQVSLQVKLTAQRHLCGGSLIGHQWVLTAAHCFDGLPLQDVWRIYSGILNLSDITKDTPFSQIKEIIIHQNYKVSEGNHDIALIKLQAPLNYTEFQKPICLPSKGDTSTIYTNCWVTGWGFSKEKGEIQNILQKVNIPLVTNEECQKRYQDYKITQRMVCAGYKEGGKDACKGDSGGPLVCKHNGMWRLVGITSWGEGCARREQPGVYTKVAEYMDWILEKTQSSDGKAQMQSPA
Assay Endpoint: IC50 (nM)

{"Molecule": "CC(C)Cc1nc(N2CC3CC3C2)ccc1Cn1cnc(C(=O)N[C@@H]2CCc3c2ncn3C)c1 (stereo partly shown) [Example 100]", "Assay Endpoint": "IC50", "Readout Number": 5.6}
{"Molecule": "Cc1nc(N2CC3CC3C2)ccc1Cc1cc(C(=O)N[C@@H]2CCc3c2ncn3C)n(C)n1 (stereo partly shown) [Example 168]", "Assay Endpoint": "IC50", "Readout Number": 1.5}
{"Molecule": "Cc1nc(N2CCC3(CC2)CC3)ncc1Cn1cc(C(=O)N[C@@H]2CCc3c2ncn3C)cn1 [Example 237]", "Assay Endpoint": "IC50", "Readout Number": 111}
{"Molecule": "Cn1cnc2c1CC[C@H]2NC(=O)c1cn(Cc2ccc(N3CC4C(C3)C4(F)F)cc2Cl)cn1 (stereo partly shown) [Example 211]", "Assay Endpoint": "IC50", "Readout Number": 0.8}
{"Molecule": "CCc1nc(N2CC3CC3C2)ccc1Cc1ccc(C(=O)N[C@@H]2CCc3c2ncn3C)s1 (stereo partly shown) [Example 183]", "Assay Endpoint": "IC50", "Readout Number": 19.4}
{"Molecule": "Cn1cnc2c1CC[C@H]2NC(=O)c1cn(Cc2ccc(N3CC4C(C3)C4(F)F)cc2C#N)cn1 (stereo partly shown) [Example 210]", "Assay Endpoint": "IC50", "Readout Number": 0.4}
{"Molecule": "Cn1cnc2c1CC[C@H]2NC(=O)c1cc(Cc2ccc(N3CC4CC4C3)nc2C(F)F)no1 (stereo partly shown) [Example 144]", "Assay Endpoint": "IC50", "Readout Number": 0.8}
{"Molecule": "Cn1cnc2c1CC[C@H]2NC(=O)c1cn(Cc2ccc(N3CC4CC4C3)nc2Cl)nn1 (stereo partly shown) [Example 32]", "Assay Endpoint": "IC50", "Readout Number": 1.1}
{"Molecule": "Cc1nc(N2C[C@@H]3[C@@H](C)[C@@H]3C2)ncc1Cn1cc(C(=O)N[C@@H]2CCc3c2ncn3C)cn1 [Example 229]", "Assay Endpoint": "IC50", "Readout Number": 110}
{"Molecule": "Cn1cnc2c1CC[C@H]2NC(=O)c1cn(Cc2ccc(N3CC4(CC4)C3)nc2CO)cn1 [Example 87]", "Assay Endpoint": "IC50", "Readout Number": 3.3}
{"Molecule": "Cn1cnc2c1CC[C@H]2NC(=O)c1cn(Cc2cnc(N3CC4CC4C3)cc2C(F)(F)F)cn1 (stereo partly shown) [Example 121]", "Assay Endpoint": "IC50", "Readout Number": 1.6}
{"Molecule": "CCCc1nc(N2CC3C(C2)C3(F)F)ccc1Cn1cc(C(=O)N[C@@H]2CCc3c2ncn3C)cn1 (stereo partly shown) [Example 69]", "Assay Endpoint": "IC50", "Readout Number": 0.9}
{"Molecule": "Cc1nc(N2CC3CC3C2)c(C#N)cc1Cn1cc(C(=O)N[C@@H]2CCc3c2ncn3C)cn1 (stereo partly shown) [Example 128]", "Assay Endpoint": "IC50", "Readout Number": 5.1}
